System under test: various mutants of kinase EGFR (BaF3 cell lines stably transfected with kinase) (Homo sapiens, UniProt P00533, C797S/L858R/T790M)
Construct: expressed in transfected cells; host or cells: BaF3
Sequence (P00533 25-1210 T790M/C797S/L858R): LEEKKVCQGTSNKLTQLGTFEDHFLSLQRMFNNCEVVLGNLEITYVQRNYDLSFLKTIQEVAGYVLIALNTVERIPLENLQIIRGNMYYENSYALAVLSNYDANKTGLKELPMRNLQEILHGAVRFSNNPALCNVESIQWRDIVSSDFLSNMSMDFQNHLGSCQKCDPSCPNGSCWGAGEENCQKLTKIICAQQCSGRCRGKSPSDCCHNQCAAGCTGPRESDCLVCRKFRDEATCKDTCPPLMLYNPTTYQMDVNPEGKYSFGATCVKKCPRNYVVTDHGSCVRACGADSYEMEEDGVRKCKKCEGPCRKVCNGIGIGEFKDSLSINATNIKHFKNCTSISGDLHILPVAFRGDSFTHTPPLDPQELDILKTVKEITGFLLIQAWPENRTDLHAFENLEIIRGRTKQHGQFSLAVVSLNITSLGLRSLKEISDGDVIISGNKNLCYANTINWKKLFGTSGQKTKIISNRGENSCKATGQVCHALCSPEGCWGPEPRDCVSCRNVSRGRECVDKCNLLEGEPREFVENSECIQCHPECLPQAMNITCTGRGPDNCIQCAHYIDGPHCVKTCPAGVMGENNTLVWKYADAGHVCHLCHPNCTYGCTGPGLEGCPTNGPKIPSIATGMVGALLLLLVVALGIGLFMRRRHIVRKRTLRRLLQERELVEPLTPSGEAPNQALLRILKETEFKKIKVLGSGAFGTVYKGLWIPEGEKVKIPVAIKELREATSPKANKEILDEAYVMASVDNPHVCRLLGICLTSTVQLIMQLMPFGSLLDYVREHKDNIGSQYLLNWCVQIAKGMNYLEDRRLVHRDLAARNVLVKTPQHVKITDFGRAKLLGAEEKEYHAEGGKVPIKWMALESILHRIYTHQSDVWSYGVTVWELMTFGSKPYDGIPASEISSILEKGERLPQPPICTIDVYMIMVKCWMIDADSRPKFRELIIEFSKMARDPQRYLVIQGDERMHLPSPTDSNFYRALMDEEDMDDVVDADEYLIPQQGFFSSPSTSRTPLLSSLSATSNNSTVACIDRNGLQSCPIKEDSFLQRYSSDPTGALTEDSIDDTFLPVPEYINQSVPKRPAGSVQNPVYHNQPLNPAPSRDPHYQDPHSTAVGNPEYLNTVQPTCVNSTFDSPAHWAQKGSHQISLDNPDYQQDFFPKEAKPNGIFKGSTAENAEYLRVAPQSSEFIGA
Assay info: Growth inhibitory activity of compounds on BaF3 cell lines stably transfected with kinase (MTS, 48 h)
Format: cell-based
Recorded conditions: BaF3 cells stably transfected with EGFR L858R/T790M/C797S, read-out: IC50, growth inhibition, L858R/T790M/C797S
Procedure: The activity of compounds against various mutants of kinase EGFR was evaluated by their effect of inhibiting growth of BaF3 cell lines stably transfected with kinase. The specific test method was given as follows: […] 3) Compound test: cells were incubated into a 96-well culture plate, the volume of cytosol was 90 µL, and then 10 µL of the compound at each gradient concentration was added. […] OD values at 490 nm were measured by a microplate reader (VARIOSKAN FLASH, Thermo). […]
Measured property: IC50

Please look at this compound and report its IC50: C=Cc1cc(Nc2ncc(Br)c(Nc3ccc4nccnc4c3N(C)S(=O)(=O)C(F)(F)F)n2)c(OC(F)(F)F)cc1N1CCC(N2CCN(C)CC2)CC1 [Compound I-258]
50 to 500 nM

Name the recorded IC50 of the item COc1cc(N2CCC(N3CCN(C)CC3)CC2)c(C2CC2)cc1Nc1ncc(Cl)c(Nc2ccc3nccnc3c2N(C)S(C)(=O)=O)n1 [Compound I-287] in your answer.
≤ 50 nM

Provide one value: measured IC50 of Cc1ccc(Nc2ncc(Br)c(Nc3ccc4nccnc4c3N(C)S(C)(=O)=O)n2)cn1 [Compound I-63]
50 to 500 nM

Fill in IC50 for record CCc1cc(Nc2ncc(C)c(Nc3ccc4nccnc4c3N(C)S(C)(=O)=O)n2)c(OC)cc1N1CCC(N(C)C)C1 (stereo not drawn) [Compound I-280]
≤ 50 nM

State, in one line, measured IC50 of COc1cc(N2CCC(N3CCN(C)CC3)CC2)ccc1Nc1ncc(F)c(Nc2ccc3nccnc3c2N(C)S(C)(=O)=O)n1 [Compound I-24]
50 to 500 nM

Find the measured IC50 of CCS(=O)(=O)N(C)c1c(Nc2nc(Nc3ccc(N4CCC(N5CCN(C)CC5)CC4)cc3OC)ncc2Br)ccc2nccnc12 [Compound I-214] and report it.
50 to 500 nM
